test system: CCRF-CEM; experiment: Cytotoxicity against human CCRF-CEM cells assessed as reduction in cell viability incubated for 72 hrs by MTS assay; type: functional, cell-based
Known IC50 of a selection of molecules
recorded metric: IC50 (µM)

molecule: C=C(C)[C@@H]1CC[C@]2(C(=O)OCc3oc(=O)oc3C)CC[C@]3(C)[C@H](CC[C@@H]4[C@@]5(C)Cc6cccnc6C(C)(C)[C@@H]5CC[C@]43C)[C@@H]12
measurement: 35
//
molecule: C[C@H]1[C@H](C)CC[C@]2(C(=O)O)CC[C@]3(C)C(=CC[C@@H]4[C@@]5(C)CCC(=O)C(C)(C)[C@@H]5CC[C@]43C)[C@H]12 [URSONIC ACID]
measurement: 16
//
molecule: C=C(C=O)[C@@H]1CC[C@]2(C(=O)OCc3cn([C@H]4O[C@H](COC(C)=O)[C@@H](OC(C)=O)[C@H](OC(C)=O)[C@H]4OC(C)=O)nn3)CC[C@]3(C)[C@H](CC[C@@H]4[C@@]5(C)CC[C@H](O)C(C)(C)[C@@H]5CC[C@]43C)[C@@H]12
measurement: 0.6
//
molecule: CC1=CC[C@]2(C(=O)O)CC[C@]3(C)[C@H](CC[C@@H]4[C@@]5(C)Cc6nccnc6C(C)(C)[C@@H]5CC[C@]43C)[C@H]2[C@@H]1C
measurement: 7.2
//
molecule: C=C(C)[C@@H]1CC[C@]2(C(=O)OCc3oc(=O)oc3C)CC[C@]3(C)[C@H](CC[C@@H]4[C@@]5(C)CCC(=O)C(C)(C)[C@@H]5CC[C@]43C)[C@@H]12
measurement: 2.3

====

experiment: Chemical stability in PBS buffer at pH 7.4 assessed as compound remaining measured at 30 mins by RF-MS analysis; type: physicochemical; settings: read-out: Stability

compound: C=C(C)[C@@H]1CC[C@]2(C(=O)OCc3cn([C@H]4O[C@H](COC(C)=O)[C@@H](OC(C)=O)[C@H](OC(C)=O)[C@H]4OC(C)=O)nn3)CC[C@]3(C)[C@H](CC[C@@H]4[C@@]5(C)Cc6nccnc6C(C)(C)[C@@H]5CC[C@]43C)[C@@H]12 (stereo in doubt)
remaining at 0.5 h, %: 99.5
--
compound: C=C(C=O)[C@@H]1CC[C@]2(C(=O)OCc3cn([C@H]4O[C@H](COC(C)=O)[C@@H](OC(C)=O)[C@H](OC(C)=O)[C@H]4OC(C)=O)nn3)CC[C@]3(C)[C@H](CC[C@@H]4[C@@]5(C)CC[C@H](O)C(C)(C)[C@@H]5CC[C@]43C)[C@@H]12
remaining at 0.5 h, %: 92.5
--
compound: C=C(C=O)[C@@H]1CC[C@]2(C(=O)OCc3cn([C@H]4O[C@H](COC(C)=O)[C@@H](OC(C)=O)[C@H](OC(C)=O)[C@H]4OC(C)=O)nn3)CC[C@]3(C)[C@H](CC[C@@H]4[C@@]5(C)Cc6nccnc6C(C)(C)[C@@H]5CC[C@]43C)[C@@H]12 (stereo in doubt)
remaining at 0.5 h, %: 91.1
--
compound: C=C(C)[C@@H]1CC[C@]2(C(=O)OCc3cn([C@H]4O[C@H](COC(C)=O)[C@@H](OC(C)=O)[C@H](OC(C)=O)[C@H]4OC(C)=O)nn3)CC[C@]3(C)[C@H](CC[C@@H]4[C@@]5(C)CC[C@H](O)C(C)(C)[C@@H]5CC[C@]43C)[C@@H]12
remaining at 0.5 h, %: 92.7

====

Known Activity of a selection of molecules
test system: CCRF-CEM; experiment: Induction of apoptosis in human CCRF-CEM cells assessed as early apoptotic cells at 5 times IC50 incubated for 24 hrs by Annexin V and propidium iodide staining based flow cytometry analysis […]; assay type: functional
recorded metric: Activity (%)

molecule: C=C(C)[C@@H]1CC[C@]2(C(=O)OCc3oc(=O)oc3C)CC[C@]3(C)[C@H](CC[C@@H]4[C@@]5(C)CCC(=O)C(C)(C)[C@@H]5CC[C@]43C)[C@@H]12
measurement: 7.1
--
molecule: C=C(C)[C@@H]1CC[C@]2(C(=O)O)CC[C@]3(C)[C@H](CC[C@@H]4[C@@]5(C)Cc6nccnc6C(C)(C)[C@@H]5CC[C@]43C)[C@@H]12
measurement: 0.8
--
molecule: C=C(C=O)[C@@H]1CC[C@]2(C(=O)OCc3cn([C@H]4O[C@H](COC(C)=O)[C@@H](OC(C)=O)[C@H](OC(C)=O)[C@H]4OC(C)=O)nn3)CC[C@]3(C)[C@H](CC[C@@H]4[C@@]5(C)Cc6nccnc6C(C)(C)[C@@H]5CC[C@]43C)[C@@H]12 (stereo in doubt)
measurement: 56
--
molecule: C=C(C=O)[C@@H]1CC[C@]2(C(=O)OCc3cn([C@H]4O[C@H](CO)[C@@H](O)[C@H](O)[C@H]4O)nn3)CC[C@]3(C)[C@H](CC[C@@H]4[C@@]5(C)Cc6nccnc6C(C)(C)[C@@H]5CC[C@]43C)[C@@H]12 (stereo in doubt)
measurement: 41.5
--
molecule: C=C(C=O)[C@@H]1CC[C@]2(C(=O)O)CC[C@]3(C)[C@H](CC[C@@H]4[C@@]5(C)Cc6nccnc6C(C)(C)[C@@H]5CC[C@]43C)[C@@H]12
measurement: 54
--
molecule: C=C(C)[C@@H]1CC[C@]2(C(=O)OCc3oc(=O)oc3C)CC[C@]3(C)[C@H](CC[C@@H]4[C@@]5(C)CC[C@H](O)C(C)(C)[C@@H]5CC[C@]43C)[C@@H]12
measurement: 6.1

====

test: Chemical stability in PBS buffer at pH 7.4 assessed as compound remaining measured at 15 mins by RF-MS analysis; format: physicochemical; details: read-out: Stability
recorded metric: remaining at 0.25 h

molecule: C=C(C=O)[C@@H]1CC[C@]2(C(=O)OCc3cn([C@H]4O[C@H](COC(C)=O)[C@@H](OC(C)=O)[C@H](OC(C)=O)[C@H]4OC(C)=O)nn3)CC[C@]3(C)[C@H](CC[C@@H]4[C@@]5(C)Cc6nccnc6C(C)(C)[C@@H]5CC[C@]43C)[C@@H]12 (stereo in doubt)
measurement: 99.9%

molecule: C=C(C=O)[C@@H]1CC[C@]2(C(=O)OCc3cn([C@H]4O[C@H](COC(C)=O)[C@@H](OC(C)=O)[C@H](OC(C)=O)[C@H]4OC(C)=O)nn3)CC[C@]3(C)[C@H](CC[C@@H]4[C@@]5(C)CC[C@H](O)C(C)(C)[C@@H]5CC[C@]43C)[C@@H]12
measurement: 97.1%

molecule: C=C(C)[C@@H]1CC[C@]2(C(=O)OCc3cn([C@H]4O[C@H](COC(C)=O)[C@@H](OC(C)=O)[C@H](OC(C)=O)[C@H]4OC(C)=O)nn3)CC[C@]3(C)[C@H](CC[C@@H]4[C@@]5(C)Cc6nccnc6C(C)(C)[C@@H]5CC[C@]43C)[C@@H]12 (stereo in doubt)
measurement: 98.9%

molecule: C=C(C)[C@@H]1CC[C@]2(C(=O)OCc3cn([C@H]4O[C@H](COC(C)=O)[C@@H](OC(C)=O)[C@H](OC(C)=O)[C@H]4OC(C)=O)nn3)CC[C@]3(C)[C@H](CC[C@@H]4[C@@]5(C)CC[C@H](O)C(C)(C)[C@@H]5CC[C@]43C)[C@@H]12
measurement: 98.5%

====

system: HCT-116; assay: Cytotoxicity against human HCT-116 cells assessed as reduction in cell viability incubated for 72 hrs by MTS assay; assay type: functional, cell-based; conditions: HCT-116, 72 h
pIC50: −log10 of the molar value.

compound: CC1(C)C=C2[C@H]3CC[C@@H]4[C@@]5(C)Cc6nccnc6C(C)(C)[C@@H]5CC[C@@]4(C)[C@]3(C)CC[C@@]2(C(=O)O)CC1
bound sign: =
pIC50: 4.40
--
compound: C#CCOC(=O)[C@]12CC[C@@H](C(=C)C)[C@@H]1[C@H]1CC[C@@H]3[C@@]4(C)Cc5nccnc5C(C)(C)[C@@H]4CC[C@@]3(C)[C@]1(C)CC2
bound sign: <
pIC50: 4.30
--
compound: C#CCOC(=O)[C@]12CC[C@@H](C(=C)C=O)[C@@H]1[C@H]1CC[C@@H]3[C@@]4(C)Cc5nccnc5C(C)(C)[C@@H]4CC[C@@]3(C)[C@]1(C)CC2
bound sign: =
pIC50: 5.15
--
compound: CC1(C)C=C2[C@H]3CC[C@@H]4[C@@]5(C)CCC(=O)C(C)(C)[C@@H]5CC[C@@]4(C)[C@]3(C)CC[C@@]2(C(=O)O)CC1
bound sign: =
pIC50: 4.35
--
compound: CC1=CC[C@]2(C(=O)O)CC[C@]3(C)C(=CC[C@@H]4[C@@]5(C)Cc6cccnc6C(C)(C)[C@@H]5CC[C@]43C)[C@H]2[C@@H]1C
bound sign: =
pIC50: 4.47
--
compound: CC1=CC[C@]2(C(=O)O)CC[C@]3(C)[C@H](CC[C@@H]4[C@@]5(C)Cc6nccnc6C(C)(C)[C@@H]5CC[C@]43C)[C@H]2[C@@H]1C
bound sign: =
pIC50: 4.32
--
compound: Cc1oc(=O)oc1COC(=O)[C@]12CC[C@@H](C(C)C)[C@@H]1[C@H]1CC[C@@H]3[C@@]4(C)Cc5cccnc5C(C)(C)[C@@H]4CC[C@@]3(C)[C@]1(C)CC2
bound sign: <
pIC50: 4.30
--
compound: CC1(C)CC[C@]23CC[C@]4(C)[C@H](CC[C@@H]5[C@@]6(C)Cc7nccnc7C(C)(C)[C@@H]6CC[C@]54C)[C@H]2[C@H]1OC3
bound sign: <
pIC50: 4.30
--
compound: C=C(C)[C@@H]1CC[C@]2(C(=O)OCc3oc(=O)oc3C)CC[C@]3(C)[C@H](CC[C@@H]4[C@@]5(C)CCC(=O)C(C)(C)[C@@H]5CC[C@]43C)[C@@H]12
bound sign: =
pIC50: 4.68
--
compound: C=C(C)[C@@H]1CC[C@]2(C(=O)OCc3cn([C@H]4O[C@H](COC(C)=O)[C@@H](OC(C)=O)[C@H](OC(C)=O)[C@H]4OC(C)=O)nn3)CC[C@]3(C)[C@H](CC[C@@H]4[C@@]5(C)Cc6nccnc6C(C)(C)[C@@H]5CC[C@]43C)[C@@H]12 (stereo in doubt)
bound sign: <
pIC50: 4.30
